Tested On: T1, ROCK1 (UniProt Q13464 1-553, limits assumed)
T1 construct: also called Rho-associated kinase 1; p160ROCK
T1 sequence (Q13464 1-553 limits assumed): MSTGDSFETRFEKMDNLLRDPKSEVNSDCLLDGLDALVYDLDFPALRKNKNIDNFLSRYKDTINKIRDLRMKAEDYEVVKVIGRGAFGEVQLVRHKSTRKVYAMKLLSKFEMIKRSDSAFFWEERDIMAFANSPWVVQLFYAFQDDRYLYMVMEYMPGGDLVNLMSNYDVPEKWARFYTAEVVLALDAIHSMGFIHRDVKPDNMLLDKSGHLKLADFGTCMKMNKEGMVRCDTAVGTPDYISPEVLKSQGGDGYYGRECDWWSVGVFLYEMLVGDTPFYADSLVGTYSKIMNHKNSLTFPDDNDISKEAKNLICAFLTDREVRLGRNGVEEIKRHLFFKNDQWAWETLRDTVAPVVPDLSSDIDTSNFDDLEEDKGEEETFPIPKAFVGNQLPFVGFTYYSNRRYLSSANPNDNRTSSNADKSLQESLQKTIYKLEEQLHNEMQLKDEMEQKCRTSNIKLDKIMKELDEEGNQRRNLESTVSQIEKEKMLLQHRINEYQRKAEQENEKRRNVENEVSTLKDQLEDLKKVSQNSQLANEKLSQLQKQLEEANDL
Assay: SPR (BiaCore, proteins immobilized on CM-5 chip)
Measured Quantity: Kd (nM)
Entry rule: numbers only, all in nM.

Q: Returns the measured Kd for the input binder. Input: ERTYSPSTAVRS (also called PD2w-5; Pep25-4) [peptide25 (ERTYSPSTAVRS)]
Ans: 1500

Provenance of the data: patent US20170296617A1
